Values were extracted from ChEMBL document CHEMBL1149532.

# assayed_target: Gonadotropin-releasing hormone receptor (Homo sapiens, UniProt P30968)
# Sequence (P30968 whole entry): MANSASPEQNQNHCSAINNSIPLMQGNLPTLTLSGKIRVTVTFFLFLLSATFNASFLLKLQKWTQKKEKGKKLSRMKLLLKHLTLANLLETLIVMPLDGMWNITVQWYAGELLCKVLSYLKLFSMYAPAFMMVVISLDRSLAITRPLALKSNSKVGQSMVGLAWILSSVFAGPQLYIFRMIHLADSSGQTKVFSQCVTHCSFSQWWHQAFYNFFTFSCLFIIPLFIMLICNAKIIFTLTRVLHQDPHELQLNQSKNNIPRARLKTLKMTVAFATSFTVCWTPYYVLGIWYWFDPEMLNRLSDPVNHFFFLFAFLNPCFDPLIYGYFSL
# assay_details: Inhibition of human GnRHR expressed in RBL cells assessed as inhibition of GnRH-stimulated [3H]inositol phosphate hydrolysis
endpoint_name: pIC50
Kindly note that pIC50 refers to -log10 of the concentration in mol/L and answer with the value alone.

# compound, pIC50
measured = [
    ("Cc1cc(C)cc(-c2[nH]c3c(c2[C@H](C)CNCCc2ccc4nccnc4c2)CN(C(=O)Cc2c(F)cccc2C(F)(F)F)CC3)c1", 7.22),
]

Q: Give the measured pIC50 of Cc1cc(C)cc(-c2[nH]c3c(c2[C@H](C)CNCCc2ccncc2)CN(C(=O)C2CCCC2)CC3)c1 .
Ans: 5.46

Q: # pIC50 lookup, item Cc1cc(C)cc(-c2[nH]c3c(c2[C@H](C)CNCCc2ccc(=O)n(C)c2)CN(C(=O)Cc2c(F)cccc2C(F)(F)F)CC3)c1
Ans: 7.49
